- ASSAY METHOD TEXT: Single-dose pharmacokinetics in rat (Table 10)
- Format: in vivo
- MEASUREMENT CONDITIONS: in vivo, po; Rat, 100 mg/kg orally, range over vehicles; read-out: Cmax
MEASURED QUANTITY: Cmax

COMPOUND | VALUE REPORTED
Cl.S=C(NCc1ccc2c(c1)OCO2)N1CCN(c2ncnc3c2oc2ccccc23)CC1 [MP470.HCl] | 4600 to 7200 ng/mL

----------
- STUDY SYSTEM: cKit (V654A) (h) (Homo sapiens, UniProt P10721, V654A)
- Sequence (P10721 26-976 V654A): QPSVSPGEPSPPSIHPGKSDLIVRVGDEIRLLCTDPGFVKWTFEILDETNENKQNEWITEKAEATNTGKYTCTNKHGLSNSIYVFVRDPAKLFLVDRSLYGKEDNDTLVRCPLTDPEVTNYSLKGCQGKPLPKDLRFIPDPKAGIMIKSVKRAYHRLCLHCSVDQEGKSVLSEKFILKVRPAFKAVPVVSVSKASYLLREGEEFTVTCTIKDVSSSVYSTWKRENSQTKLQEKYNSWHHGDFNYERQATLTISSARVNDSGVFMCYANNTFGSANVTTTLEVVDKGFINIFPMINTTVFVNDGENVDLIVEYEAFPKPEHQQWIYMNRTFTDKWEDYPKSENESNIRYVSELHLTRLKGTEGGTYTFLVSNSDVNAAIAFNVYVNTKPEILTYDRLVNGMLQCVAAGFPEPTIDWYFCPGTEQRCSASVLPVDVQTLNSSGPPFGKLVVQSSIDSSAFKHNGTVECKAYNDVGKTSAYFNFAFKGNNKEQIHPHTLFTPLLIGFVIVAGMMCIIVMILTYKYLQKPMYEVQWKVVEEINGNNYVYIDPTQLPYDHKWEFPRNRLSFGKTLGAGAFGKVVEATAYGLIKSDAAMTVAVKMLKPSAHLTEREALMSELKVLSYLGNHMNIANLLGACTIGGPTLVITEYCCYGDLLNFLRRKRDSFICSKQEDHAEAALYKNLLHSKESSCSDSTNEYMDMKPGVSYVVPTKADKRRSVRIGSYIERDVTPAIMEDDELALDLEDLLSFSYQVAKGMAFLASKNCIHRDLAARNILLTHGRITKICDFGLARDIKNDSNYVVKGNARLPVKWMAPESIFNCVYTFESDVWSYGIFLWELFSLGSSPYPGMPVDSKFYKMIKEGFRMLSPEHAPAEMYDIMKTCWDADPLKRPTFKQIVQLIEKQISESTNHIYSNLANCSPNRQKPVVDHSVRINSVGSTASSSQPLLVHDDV
- ASSAY METHOD TEXT: Mutant kinase IC50 screen
- Format: biochemical
MEASURED QUANTITY: IC50 (µM)

MOLECULE | VALUE REPORTED
Cl.S=C(NCc1ccc2c(c1)OCO2)N1CCN(c2ncnc3c2oc2ccccc23)CC1 [MP470.HCl] | 0.127

----------
- ASSAY METHOD TEXT: 28-day chronic oral tolerability and toxicokinetics in dog
- Type: in vivo
- MEASUREMENT CONDITIONS: both sexes, beagle, dog, in vivo, po, 300 mg/kg/day

COMPOUND | AUC
Cl.S=C(NCc1ccc2c(c1)OCO2)N1CCN(c2ncnc3c2oc2ccccc23)CC1 [MP470.HCl] | 559 to 4890 ng·h/mL

----------
- Tested on: NCI-H647 NSCLC cells
- ASSAY METHOD TEXT: Sensitization of NSCLC cells to carboplatin
- Assay type: cell-based
- MEASUREMENT CONDITIONS: Homo sapiens; NCI-H647, single agent

MOLECULE | UNIT LABEL | IC50
Cl.S=C(NCc1ccc2c(c1)OCO2)N1CCN(c2ncnc3c2oc2ccccc23)CC1 [MP470.HCl] | µM | 7.86

----------
- ASSAY METHOD TEXT: in vivo
- MEASUREMENT CONDITIONS: both sexes, rat, rats, daily oral dosing 28 days, read-out: half-lives

MOLECULE | half-life
Cl.S=C(NCc1ccc2c(c1)OCO2)N1CCN(c2ncnc3c2oc2ccccc23)CC1 [MP470.HCl] | 2 to 8 h

----------
- ASSAY METHOD TEXT: 28-day chronic oral tolerability and toxicokinetics in dog
- Assay type: in vivo
- MEASUREMENT CONDITIONS: both sexes, beagle, dog, in vivo, po, 300 mg/kg/day

COMPOUND | Cmax
Cl.S=C(NCc1ccc2c(c1)OCO2)N1CCN(c2ncnc3c2oc2ccccc23)CC1 [MP470.HCl] | 192 to 329 ng/mL

----------
- Tested on: A549 NSCLC cells
- ASSAY METHOD TEXT: Sensitization of NSCLC cells to carboplatin
- Type: cell-based
- MEASUREMENT CONDITIONS: Homo sapiens; A549, single agent

COMPOUND | STUDY SYSTEM | IC50
Cl.S=C(NCc1ccc2c(c1)OCO2)N1CCN(c2ncnc3c2oc2ccccc23)CC1 [MP470.HCl] | A549 NSCLC cells | 6.9 µM

----------
- ASSAY METHOD TEXT: 28-day chronic oral tolerability and toxicokinetics in dog
- Type: in vivo
- MEASUREMENT CONDITIONS: both sexes, beagle, dog, in vivo, po, 30 mg/kg/day
MEASURED QUANTITY: Cmax

MOLECULE | MEASURED QUANTITY | VALUE REPORTED
Cl.S=C(NCc1ccc2c(c1)OCO2)N1CCN(c2ncnc3c2oc2ccccc23)CC1 [MP470.HCl] | Cmax | 42.5 to 154 ng/mL

----------
- ASSAY METHOD TEXT: log P by shake-flask octanol/water partitioning
- Format: physicochemical
- MEASUREMENT CONDITIONS: aqueous phase citrate buffer pH 2
MEASURED QUANTITY: logP

LINE NOTATION | VALUE REPORTED
S=C(NCc1ccc2c(c1)OCO2)N1CCN(c2ncnc3c2oc2ccccc23)CC1 | 2.3

----------
- ASSAY METHOD TEXT: Solubility of MP470 and its salts (Table 2)
- Assay type: physicochemical
- MEASUREMENT CONDITIONS: water; read-out: Solubility in water

COMPOUND | Solubility / mg/mL
S=C(NCc1ccc2c(c1)OCO2)N1CCN(c2ncnc3c2oc2ccccc23)CC1 [MP470] | 0.00494
Cl.S=C(NCc1ccc2c(c1)OCO2)N1CCN(c2ncnc3c2oc2ccccc23)CC1 [MP470.HCl] | 0.0311

----------
- ASSAY METHOD TEXT: 28-day chronic oral tolerability and toxicokinetics in dog
- Type: in vivo
- MEASUREMENT CONDITIONS: both sexes, beagle, dog, in vivo, po, 30 mg/kg/day
MEASURED QUANTITY: half-life

MOLECULE | MEASURED QUANTITY | VALUE REPORTED
Cl.S=C(NCc1ccc2c(c1)OCO2)N1CCN(c2ncnc3c2oc2ccccc23)CC1 [MP470.HCl] | half-life | 7 to 84.7 h

----------
- STUDY SYSTEM: PDGFRα (D842V) (h) (Homo sapiens, UniProt P16234, D842V)
- Sequence (P16234 24-1089 D842V): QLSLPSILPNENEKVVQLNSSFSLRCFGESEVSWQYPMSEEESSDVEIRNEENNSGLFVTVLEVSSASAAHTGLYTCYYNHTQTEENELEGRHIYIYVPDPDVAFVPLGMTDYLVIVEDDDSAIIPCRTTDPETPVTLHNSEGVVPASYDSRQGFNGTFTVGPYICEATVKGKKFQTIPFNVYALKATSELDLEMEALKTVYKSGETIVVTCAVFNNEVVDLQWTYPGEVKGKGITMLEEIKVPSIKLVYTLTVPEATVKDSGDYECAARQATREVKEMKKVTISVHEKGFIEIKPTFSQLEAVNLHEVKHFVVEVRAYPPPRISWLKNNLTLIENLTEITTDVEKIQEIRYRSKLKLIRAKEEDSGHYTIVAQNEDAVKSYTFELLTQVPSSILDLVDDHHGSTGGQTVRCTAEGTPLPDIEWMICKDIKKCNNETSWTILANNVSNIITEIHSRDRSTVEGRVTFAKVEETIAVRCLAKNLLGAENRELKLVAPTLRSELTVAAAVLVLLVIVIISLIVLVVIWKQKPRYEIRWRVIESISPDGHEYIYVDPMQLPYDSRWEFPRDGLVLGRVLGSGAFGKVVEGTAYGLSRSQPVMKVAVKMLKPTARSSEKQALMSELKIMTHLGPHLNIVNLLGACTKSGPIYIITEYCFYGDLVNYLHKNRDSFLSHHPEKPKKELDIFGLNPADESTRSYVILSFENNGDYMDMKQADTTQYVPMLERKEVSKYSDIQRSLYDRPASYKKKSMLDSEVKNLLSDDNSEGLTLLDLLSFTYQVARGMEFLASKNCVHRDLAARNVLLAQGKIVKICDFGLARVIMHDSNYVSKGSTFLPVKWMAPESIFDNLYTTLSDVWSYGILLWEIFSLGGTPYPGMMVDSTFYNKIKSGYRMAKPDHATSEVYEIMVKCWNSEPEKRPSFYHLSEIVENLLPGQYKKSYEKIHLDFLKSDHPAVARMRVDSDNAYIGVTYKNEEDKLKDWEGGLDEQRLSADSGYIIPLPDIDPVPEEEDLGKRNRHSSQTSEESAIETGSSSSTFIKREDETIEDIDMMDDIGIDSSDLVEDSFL
- ASSAY METHOD TEXT: Mutant kinase IC50 screen
- Format: biochemical
MEASURED QUANTITY: IC50

COMPOUND | STUDY SYSTEM | VALUE REPORTED
Cl.S=C(NCc1ccc2c(c1)OCO2)N1CCN(c2ncnc3c2oc2ccccc23)CC1 [MP470.HCl] | PDGFRα (D842V) (h) (Homo sapiens, UniProt P16234, D842V) | 0.081 µM

----------
- STUDY SYSTEM: cKit (D816H) (h) (Homo sapiens, UniProt P10721, D816H)
- Sequence (P10721 26-976 D816H): as the sequence (P10721 26-976 V654A) above, with A629V, D791H counted along it
- ASSAY METHOD TEXT: Mutant kinase IC50 screen
- Assay type: biochemical
MEASURED QUANTITY: IC50

COMPOUND | MEASURED QUANTITY | VALUE REPORTED
Cl.S=C(NCc1ccc2c(c1)OCO2)N1CCN(c2ncnc3c2oc2ccccc23)CC1 [MP470.HCl] | IC50 | 0.01 µM

----------
- ASSAY METHOD TEXT: Solubility of MP470 and its salts (Table 2)
- Format: physicochemical
- MEASUREMENT CONDITIONS: 50 mM PBS buffer, pH 7, aqueous buffer, 50 mM PBS buffer, pH 7; read-out: Solubility (50 mM PBS buffer, pH 7, Exp. 15)
Here the recorded Solubility is given for each entry.
MEASURED QUANTITY: Solubility (µg/mL)

COMPOUND | UNIT LABEL | VALUE REPORTED
S=C(NCc1ccc2c(c1)OCO2)N1CCN(c2ncnc3c2oc2ccccc23)CC1 | µg/mL | 1.22
Cl.S=C(NCc1ccc2c(c1)OCO2)N1CCN(c2ncnc3c2oc2ccccc23)CC1 [MP470.HCl] | µg/mL | 3.28

----------
- ASSAY METHOD TEXT: 28-day chronic oral tolerability and toxicokinetics in dog
- Assay type: in vivo
- MEASUREMENT CONDITIONS: both sexes, beagle, dog, in vivo, po, 100 mg/kg/day
- Experimental: In a chronic tolerability study of MP470 hydrochloride salt in the dog, groups of six male and six female dogs received 0, 30, 100, or 300 mg/kg/day of the test article (Groups 1-4, respectively) for 28 days. […] A NOEL could not be determined; the no-observed-adverse-effect level (NOAEL) was considered to be 300 mg/kg/day (6000 mg/m2/d) for both sexes. A STD could not be calculated in this study and is likely to be higher than 300 mg/kg/day (6000 mg/m2/d).

MOLECULE | AUC
Cl.S=C(NCc1ccc2c(c1)OCO2)N1CCN(c2ncnc3c2oc2ccccc23)CC1 [MP470.HCl] | 257 to 2530 ng·h/mL

----------
- ASSAY METHOD TEXT: 28-day chronic oral tolerability and toxicokinetics in dog
- Assay type: in vivo
- MEASUREMENT CONDITIONS: both sexes, beagle, dog, in vivo, po, 300 mg/kg/day
MEASURED QUANTITY: half-life

COMPOUND | VALUE REPORTED
Cl.S=C(NCc1ccc2c(c1)OCO2)N1CCN(c2ncnc3c2oc2ccccc23)CC1 [MP470.HCl] | 10.5 to 28 h

----------
- STUDY SYSTEM: cKit (V560G) (h) (Homo sapiens, UniProt P10721, V560G)
- Sequence (P10721 26-976 V560G): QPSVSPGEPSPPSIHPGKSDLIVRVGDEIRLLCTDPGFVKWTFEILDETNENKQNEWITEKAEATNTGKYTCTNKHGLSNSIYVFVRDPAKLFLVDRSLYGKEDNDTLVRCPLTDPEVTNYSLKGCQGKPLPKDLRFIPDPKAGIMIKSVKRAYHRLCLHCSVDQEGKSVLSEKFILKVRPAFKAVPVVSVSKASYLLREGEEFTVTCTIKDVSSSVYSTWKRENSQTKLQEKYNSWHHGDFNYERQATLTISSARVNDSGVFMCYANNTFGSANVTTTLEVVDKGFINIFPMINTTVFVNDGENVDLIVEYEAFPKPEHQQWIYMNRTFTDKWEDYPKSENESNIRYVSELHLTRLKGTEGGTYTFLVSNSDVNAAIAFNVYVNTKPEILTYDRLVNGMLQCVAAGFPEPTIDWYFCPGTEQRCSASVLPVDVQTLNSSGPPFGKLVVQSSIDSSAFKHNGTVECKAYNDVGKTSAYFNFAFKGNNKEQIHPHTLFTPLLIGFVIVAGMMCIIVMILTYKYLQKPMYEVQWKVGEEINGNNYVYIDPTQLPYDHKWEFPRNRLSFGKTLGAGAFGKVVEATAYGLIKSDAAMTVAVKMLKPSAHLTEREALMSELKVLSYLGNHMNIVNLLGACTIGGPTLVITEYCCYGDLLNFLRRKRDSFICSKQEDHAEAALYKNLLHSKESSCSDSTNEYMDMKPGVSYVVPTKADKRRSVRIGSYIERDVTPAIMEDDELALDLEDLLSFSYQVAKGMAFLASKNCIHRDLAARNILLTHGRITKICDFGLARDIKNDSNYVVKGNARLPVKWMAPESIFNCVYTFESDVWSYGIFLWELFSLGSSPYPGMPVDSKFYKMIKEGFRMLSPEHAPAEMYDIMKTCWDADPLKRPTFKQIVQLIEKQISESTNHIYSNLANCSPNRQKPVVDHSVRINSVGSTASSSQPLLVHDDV
- ASSAY METHOD TEXT: Mutant kinase IC50 screen
- Format: biochemical
MEASURED QUANTITY: IC50

MOLECULE | VALUE REPORTED
Cl.S=C(NCc1ccc2c(c1)OCO2)N1CCN(c2ncnc3c2oc2ccccc23)CC1 [MP470.HCl] | 0.034 µM

----------
- ASSAY METHOD TEXT: 28-day chronic oral tolerability and toxicokinetics in dog
- Format: in vivo
- MEASUREMENT CONDITIONS: both sexes, beagle, dog, in vivo, po, 100 mg/kg/day

COMPOUND | Cmax
Cl.S=C(NCc1ccc2c(c1)OCO2)N1CCN(c2ncnc3c2oc2ccccc23)CC1 [MP470.HCl] | 78.3 to 231 ng/mL

Every entry's value here was drawn from patent US8445502B2.
